# Tested on: human SGLT2 (Homo sapiens, UniProt P31639, I433V)
# Sequence (P31639 whole entry I433V): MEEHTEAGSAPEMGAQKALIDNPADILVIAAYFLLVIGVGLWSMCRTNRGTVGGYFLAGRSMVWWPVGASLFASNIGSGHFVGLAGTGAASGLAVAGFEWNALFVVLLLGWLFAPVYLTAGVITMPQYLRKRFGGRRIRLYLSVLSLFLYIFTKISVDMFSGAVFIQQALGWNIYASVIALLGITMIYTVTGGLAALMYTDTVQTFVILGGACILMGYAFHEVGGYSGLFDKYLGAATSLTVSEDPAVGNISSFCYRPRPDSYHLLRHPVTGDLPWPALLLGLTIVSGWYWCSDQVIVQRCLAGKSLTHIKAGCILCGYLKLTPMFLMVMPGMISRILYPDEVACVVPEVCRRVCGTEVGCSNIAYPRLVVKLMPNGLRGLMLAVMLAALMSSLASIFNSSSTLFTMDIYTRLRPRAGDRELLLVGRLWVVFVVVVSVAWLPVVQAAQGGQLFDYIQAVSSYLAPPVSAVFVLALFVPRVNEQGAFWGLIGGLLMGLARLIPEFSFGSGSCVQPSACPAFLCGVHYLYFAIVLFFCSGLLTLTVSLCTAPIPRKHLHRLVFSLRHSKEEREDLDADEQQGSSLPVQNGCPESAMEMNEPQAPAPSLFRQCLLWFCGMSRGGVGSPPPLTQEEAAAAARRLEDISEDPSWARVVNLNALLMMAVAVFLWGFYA
# Assay procedure: Assay for inhibitory effect on human SGLT2 activity (uptake of methyl-α-D-glucopyranoside in COS-7 cells expressing transiently human SGLT2)
# Setup conditions: COS-7 cells expressing transiently human SGLT2; uptake of methyl-α-D-(U-14C)glucopyranoside, 37° C., 2 hours
pIC50: −log10 of the molar value.
Property name: pIC50

{"columns": ["Structure", "Tested on", "Property name", "Reported value"],
 "data": [
  ["CSc1ccc(Cc2c(C(F)(F)F)[nH][nH]c2=O)cc1", "human SGLT2 (Homo sapiens, UniProt P31639, I433V)", "pIC50", "< 4.00"]
]}
